Just for reference, patent US20210230266A1 is where these values come from.

- tgt: T1, Human IL-11 (human, UniProt P20809 22-199)
- T1 construct: Recombinant human IL-11 (GenScript Cat. No. Z03108-1) or IL-11 secreted by human cells; the mature form is said to have 178 residues; also called recombinant human IL-11; endogenously produced IL-11
- T1 sequence: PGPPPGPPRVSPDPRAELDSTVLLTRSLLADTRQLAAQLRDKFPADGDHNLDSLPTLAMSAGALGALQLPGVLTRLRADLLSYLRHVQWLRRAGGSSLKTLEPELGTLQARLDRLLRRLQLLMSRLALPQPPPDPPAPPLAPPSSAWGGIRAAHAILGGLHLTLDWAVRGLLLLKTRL
- assay.overview: ELISA on coated recombinant human IL-11 (100 ng/well), scFv-Fc
This listing pairs binders with measured EC50.
Provide only the numeric value, understood in µg/mL.

// below: answered binders
>>> readout_number("YU100-G10 (antibody) QVQLVQSGGGVVQPGRSLRLSCAASGFTFSSYGMHWVRQAPGKGLEWVAVISYDGSNKYYADSVKGRFTISRDNSKNTLYLQMNSLRAEDTAVYYCAKIGATDPLDYWGQGTLVTVSSGSASAPKLEEGEFSEARVQSALTQPASVSGSLGQSITMSCTGTRRDVGGYDFVSWYQQYPGKAPKLIIYDVSNRPSGVSNRFTGSKSGNTASLTISGLQAEDEADYYCCSYAGTYTWVFGGGTKVTVL")
0.034
>>> readout_number("YU100-H11 (antibody) QVQLVQSGGGVVQPGRSLRLSCAASGFTFSSYGMHWVRQAPGKGLEWVAVISYDGSNKYYADSVKGRFTISRDNSKNTLYLQMNSLRAEDTAVYYCAKIGATDPLDYWGQGTLVTVSSGSASAPKLEEGEFSEARVQSALTQPASVSGSPGQSITISCTGTSSDVGGYNYVSWYQQHPGKAPKLMIYDVSNRPSGVSNRFSGSKSGNTASLTISGLQAEDEADYYCCSYAGSYTWVFGGGTKLTVL")
0.015

Next binder, please.
Exercise: Data request, read-out EC50, for YU112-A07 (antibody) QVQLVESGGGVVQPGRSLRLSCAASGFTFSSYGMHWVRQAPGKGLEWVAVISYDGSNKYYTDSVKGRFTISRDNSKNTLYLQMNSLRAEDTAVYYCAKIGATDPLDYWGQGTLVTVSSGSASAPKLEEGEFSEARVQSALTQPRSVSGSPGQSVTISCTGTISDVGGYNYVSWYQQHPGKAPKLMIYDVTKRPSGVPDRFSGSKSGNTASLTISGLQAEDEAGYYCSSYAGSYTWVFGGGTELTVL
Key: 0.025
